Provide the recorded Cell viability in U251 (%) for the entries that follow.
System: U251
Assay: MTS cell viability assay, U251
Assay type: cell-based
Conditions: primary viability screening, 72 hours, MTS; test concentration not stated
Numbers only, in %.

Known results for compounds:
INSERT INTO measurements (compound, test_target, quantitative_result) VALUES
  ('CCCCc1cc(O)c2c(c1)OC1(C)CCC3C1C2C3(C)C (centres unmarked)', 'U251', 17),
  ('CCCCCc1cc(OCC)c2c(c1)OC1(C)CCC3C1C2C3(C)C (centres unmarked)', 'U251', 80),
  ('CCCCCc1cc(OC(=O)CCN(C)C)c2c(c1)OC1(C)CCC3C1C2C3(C)C (centres unmarked)', 'U251', 89),
  ('CCCCCCc1cc(O)c2c(c1)OC1(C)CCC3C1C2C3(C)C (centres unmarked)', 'U251', 78),
  ('C=CC(=O)Oc1cc(CCCCC)cc2c1C1C3C(CCC3(C)O2)C1(C)C (centres unmarked)', 'U251', 64),
  ('CCCCCc1cc(O)c2c(c1)OC1(C)CCC3C1C2C3(C)C (centres unmarked)', 'U251', 54),
  ('CCCCCCCCc1cc(O)c2c(c1)OC1(C)CCC3C1C2C3(C)C (centres unmarked)', 'U251', 75),
  ('CCCCCc1cc(O)c2c(c1)OC1(C)CCC3C(c4ccccc4)C2C31 (centres unmarked)', 'U251', 77);

Go through the items and report each one's Cell viability in U251 (%).
1. CCCCCc1cc(O)c2c(c1)OC1(C)CCC3C(C)C2C31 (centres unmarked)
2. CCCCCc1cc(OCCC)c2c(c1)OC1(C)CCC3C1C2C3(C)C (centres unmarked)
3. CCCCCc1cc(OC(C)=O)c2c(c1)OC1(C)CCC3C1C2C3(C)C (centres unmarked)
4. CCCCCc1cc(OC)c2c(c1)OC1(C)CCC3C1C2C3(C)C (centres unmarked)
5. CCCCCc1cc(OC(=O)c2ccncc2)c2c(c1)OC1(C)CCC3C1C2C3(C)C (centres unmarked)

Marked response:
[72, 82, 82, 91, 88]

Go through the items and report each one's Cell viability in U251 (%).
1. C#CCOc1cc(CCCCC)cc2c1C1C3C(CCC3(C)O2)C1(C)C (centres unmarked)
2. CCCCCc1cc(O)c2c(c1)OC1(C)CCC3C(CC)C2C31 (centres unmarked)
3. CCCCCc1cc(O)c2c(c1)OC1(C)CCC3C(C4CC4)C2C31 (centres unmarked)
4. CCCCCc1cc(OC(=O)CCN2CCOCC2)c2c(c1)OC1(C)CCC3C1C2C3(C)C (centres unmarked)
5. CC12CCC3C1C(c1c(O)cccc1O2)C3(C)C (centres unmarked)
6. CCCCCCCc1cc(O)c2c(c1)OC1(C)CCC3C1C2C3(C)C (centres unmarked)
7. CCCc1cc(O)c2c(c1)OC1(C)CCC3C1C2C3(C)C (centres unmarked)
8. CCCCCCCCCCCCCc1cc(O)c2c(c1)OC1(C)CCC3C1C2C3(C)C (centres unmarked)

Marked response:
[72, 71, 98, 90, 97, 79, 71, 79]

Go through the items and report each one's Cell viability in U251 (%).
1. CCCCCc1cc(OCc2cn(S(=O)(=O)c3ccc(C)cc3)nn2)c2c(c1)OC1(C)CCC3C1C2C3(C)C (centres unmarked)
2. C=CCOc1cc(CCCCC)cc2c1C1C3C(CCC3(C)O2)C1(C)C (centres unmarked)

Marked response:
21
81

The origin of these recorded values is patent US20250353825A1.
